Attribution: patent US11491232B2

Experiment: Systemic pharmacokinetics (plasma) after oral administration to SD rats
Type: in vivo
Details: male, Sprague-Dawley, rat, plasma, oral, 9.55 mg/kg intragastric, 0.5 h (only time point with detection), read-out: concentration of Compound 1 in the rat plasma
measurement name: concentration at 0.5 h (ng/mL)
Number in ng/mL, nothing else.

Returns the measured concentration at 0.5 h for the input compound. Input: C[C@]12C=CC(=O)C=C1CC[C@@H]1[C@@H]2[C@@H](O)C[C@@]2(C)[C@H]1CC[C@]2(O)C(=O)COC1(CO)O[C@H](CO)[C@@H](O[C@@H]2O[C@H](CO)[C@H](O)[C@H](O)[C@H]2O)[C@@H]1O (stereo partly shown) 10.4

* * *

Each record here notes measured Percentage of the example compound remaining (Composition, %).
Assay: Test on stability in mediums in vitro (buffer solutions with different pH, simulated intestinal fluid, simulated gastric fluid)
Type: physicochemical
Conditions: Water (pH 1.2) (2 h)
Number in %, nothing else.

Study these solved cases before continuing.
Returns the measured Percentage of the example compound remaining (Composition, %) for the input compound. Input: CCOc1cc([C@@H](CS(C)(=O)=O)N2C(=O)c3cccc(N(C(C)=O)C4(CO)O[C@H](CO)C(O[C@@H]5OC(CO)[C@H](O)C(O)C5O)C4O)c3C2=O)ccc1OC (some centres unmarked) 20.0

Returns the measured Percentage of the example compound remaining (Composition, %) for the input compound. Input: CCCC1O[C@@H]2C[C@H]3[C@@H]4CCC5=CC(=O)C=C[C@]5(C)[C@H]4[C@@H](O)C[C@]3(C)[C@]2(C(=O)COC2(CO)O[C@H](CO)C(O[C@@H]3OC(CO)[C@H](O)C(O)C3O)C2O)O1 (some centres unmarked) 20.0

Returns the measured Percentage of the example compound remaining (Composition, %) for the input compound. Input: C[C@@H]1C[C@H]2[C@@H]3CCC4=CC(=O)C=C[C@]4(C)[C@@]3(F)[C@@H](O)C[C@]2(C)[C@@]1(O)C(=O)COC1(CO)O[C@H](CO)[C@@H](O[C@@H]2O[C@H](CO)[C@H](O)[C@H](O)[C@H]2O)[C@@H]1O (some centres unmarked) 25.0

Returns the measured Percentage of the example compound remaining (Composition, %) for the input compound. Input: C[C@]12C=CC(=O)C=C1CC[C@@H]1[C@@H]2[C@@H](O)C[C@@]2(C)[C@H]1CC[C@]2(O)C(=O)COC1(CO)O[C@H](CO)[C@@H](O[C@@H]2O[C@H](CO)[C@H](O)[C@H](O)[C@H]2O)[C@@H]1O (some centres unmarked) 30.4

Could you now consider this next compound?
Returns the measured Percentage of the example compound remaining (Composition, %) for the input compound. Input: COCCCN1CCC(N(C(=O)c2cc(Cl)c(N)c3c2OCC3)C2(CO)O[C@H](CO)C(O[C@@H]3OC(CO)[C@H](O)C(O)C3O)C2O)CC1 (some centres unmarked) 4.4

* * *

Each record here notes measured Percentage of the example compound remaining (Composition, %).
Assay: Test on stability in mediums in vitro (buffer solutions with different pH, simulated intestinal fluid, simulated gastric fluid)
Format: physicochemical
Details: Simulated intestinal fluid (containing pancreatin) (pH 6.8) (8 h)
Number in %, nothing else.

Study these solved cases before continuing.
Returns the measured Percentage of the example compound remaining (Composition, %) for the input compound. Input: COCCCN1CCC(N(C(=O)c2cc(Cl)c(N)c3c2OCC3)C2(CO)O[C@H](CO)C(O[C@@H]3OC(CO)[C@H](O)C(O)C3O)C2O)CC1 (stereo partly drawn) 99.4

Returns the measured Percentage of the example compound remaining (Composition, %) for the input compound. Input: C[C@]12C=CC(=O)C=C1CC[C@@H]1[C@@H]2[C@@H](O)C[C@@]2(C)[C@H]1CC[C@]2(O)C(=O)COC1(CO)O[C@H](CO)[C@@H](O[C@@H]2O[C@H](CO)[C@H](O)[C@H](O)[C@H]2O)[C@@H]1O (stereo partly drawn) 99.0

Returns the measured Percentage of the example compound remaining (Composition, %) for the input compound. Input: CCOc1cc([C@@H](CS(C)(=O)=O)N2C(=O)c3cccc(N(C(C)=O)C4(CO)O[C@H](CO)C(O[C@@H]5OC(CO)[C@H](O)C(O)C5O)C4O)c3C2=O)ccc1OC (stereo partly drawn) 100

Continuing:
Returns the measured Percentage of the example compound remaining (Composition, %) for the input compound. Input: CCCC1O[C@@H]2C[C@H]3[C@@H]4CCC5=CC(=O)C=C[C@]5(C)[C@H]4[C@@H](O)C[C@]3(C)[C@]2(C(=O)COC2(CO)O[C@H](CO)C(O[C@@H]3OC(CO)[C@H](O)C(O)C3O)C2O)O1 (stereo partly drawn) 98.9

Returns the measured Percentage of the example compound remaining (Composition, %) for the input compound. Input: C[C@@H]1C[C@H]2[C@@H]3CCC4=CC(=O)C=C[C@]4(C)[C@@]3(F)[C@@H](O)C[C@]2(C)[C@@]1(O)C(=O)COC1(CO)O[C@H](CO)[C@@H](O[C@@H]2O[C@H](CO)[C@H](O)[C@H](O)[C@H]2O)[C@@H]1O (stereo partly drawn) 99.4

Returns the measured Percentage of the example compound remaining (Composition, %) for the input compound. Input: COCCCN1CCC(NC(=O)c2cc(Cl)c(NC3(CO)O[C@H](CO)[C@@H](O[C@@H]4O[C@H](CO)[C@H](O)[C@H](O)[C@H]4O)[C@@H]3O)c3c2OCC3)CC1 (stereo partly drawn) 98.3
